Each recorded value in this set is attributed to PubChem BioAssay AID2060338.

- Test system: 556581-035-R-J1-PDC spheroids with HUVEC/MSC, viability;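 also: spheroids exposed to compounds for 7 days before readout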
- MEASUREMENT_DESCRIPTION: Anticancer human tumor 556581-035-R-J1-PDC patient-derived ovarian carcinoma cell line growth inhibition [IpAb]
- MEASUREMENT_SETUP: second compound 10 µM; first compound 3.16 µM; stronger effect = lower value
viability, T/C strictly less than 30% = met. Otherwise not met.

Solved cases below.
MOLECULE	GROUP_LABEL
C=CC(=O)N1CCN(c2nc(=O)n(-c3c(C)ccnc3C(C)C)c3nc(-c4c(O)cccc4F)c(F)cc23)C(C)C1 (configuration not stated) + CC(C)NCC(C(=O)N1CCN(c2ncnc3c2C(C)CC3O)CC1)c1ccc(Cl)cc1	not met
Cc1nc(NC(=O)N2CCCC2C(N)=O)sc1-c1ccnc(C(C)(C)C(F)(F)F)c1 (configuration not stated) + CC(C)NCC(C(=O)N1CCN(c2ncnc3c2C(C)CC3O)CC1)c1ccc(Cl)cc1	met
CC1(C)CCC(CN2CCN(c3ccc(C(=O)NS(=O)(=O)c4ccc(NCC5CCOCC5)c([N+](=O)[O-])c4)c(Oc4cnc5[nH]ccc5c4)c3)CC2)=C(c2ccc(Cl)cc2)C1 + CC(C)NCC(C(=O)N1CCN(c2ncnc3c2C(C)CC3O)CC1)c1ccc(Cl)cc1	not met
CCCS(=O)(=O)Nc1ccc(F)c(C(=O)c2c[nH]c3ncc(-c4ccc(Cl)cc4)cc23)c1F + CC(C)NCC(C(=O)N1CCN(c2ncnc3c2C(C)CC3O)CC1)c1ccc(Cl)cc1	not met
C=CCn1c(=O)c2cnc(Nc3ccc(N4CCN(C)CC4)cc3)nc2n1-c1cccc(C(C)(C)O)n1 + CC(C)NCC(C(=O)N1CCN(c2ncnc3c2C(C)CC3O)CC1)c1ccc(Cl)cc1	met
Cn1ncc(Cl)c1-c1cc(C(=O)NC(CN)Cc2cccc(F)c2)sc1Cl (configuration not stated) + CC(C)NCC(C(=O)N1CCN(c2ncnc3c2C(C)CC3O)CC1)c1ccc(Cl)cc1	not met

With those in mind, consider the next molecule.
Input line: Dear colleague, could you confirm whether viability, T/C of Cn1nccc1Nc1nccc(-c2ccn(C(CO)c3ccc(Cl)c(F)c3)c(=O)c2)n1 (configuration not stated) + CC(C)NCC(C(=O)N1CCN(c2ncnc3c2C(C)CC3O)CC1)c1ccc(Cl)cc1 falls below 30%? Thanks.
Output line: met
